- Tested on: 388556-164-R-J1-PDC complex spheroid viability;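 further: spheroids exposed to compound for 7 days before readout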
- Test summary: Anticancer human tumor 388556-164-R-J1-PDC patient-derived colon adenocarcinoma cell line growth inhibition [RAS]
- Condition set: compound alone; run of 09/09/2024
The reader will find reported IC50 values listed item by item below.

C#Cc1c(F)ccc2cc(O)cc(-c3ncc4c(N5CC6CCC(C5)N6)nc(OCC56CCCN5CC(F)C6)nc4c3F)c12 (configuration not stated) ... > 10 µM

Requested read-out: IC50. Entry: C=CC(=O)N1CCN(c2nc(OCC3CCCN3C)nc3c(F)c(-c4nc(N)cc(C)c4C(F)(F)F)c(Cl)cc23)C(C)C1 (configuration not stated)
> 1 µM
